The following compounds are shown together with reported solubility values.
test: Solubility assay in water, 0.1% hydrochloric acid and methanol; format: physicochemical; conditions: water; read-out: solubility

Worked cases, answers included:
CC1=NN(c2ccc3c(c2)C(C)(C)CC3)C(=O)/C1=N\Nc1cccc(-c2ccc(C(=O)O)o2)c1O < 1 µg/mL
CC1=NN(c2ccc3c(c2)CCCC3)C(=O)/C1=N\Nc1cccc(-c2ccc(C(=O)O)o2)c1O.NCCO.NCCO 3960 µg/mL
CC1=NN(c2ccc3c(c2)C(C)(C)CC3)C(=O)/C1=N\Nc1cccc(-c2ccc(C(=O)O)o2)c1O.NCCO.NCCO 2900 µg/mL
CC1=NN(c2ccc3c(c2)CCC3)C(=O)/C1=N\Nc1cccc(-c2cccc(C(=O)O)c2)c1O.NCCO.NCCO 3 µg/mL

Let us move to another entry and its solubility.
Request the reported solubility associated with CC1=NN(c2ccc3c(c2)CCCC3)C(=O)/C1=N\Nc1cccc(-c2ccc(C(=O)[O-])o2)c1[O-].[Na+].[Na+]
1880 µg/mL

---

Test: Pharmacokinetics assay in rats
Format: in vivo, SD rats
Conditions: both sexes, rat, in vivo, po; SD rats, intragastric, 50 mg/Kg (as free acid); read-out: Clearance CL/F (converted)
Procedure: The compounds of the present disclosure were administrated intragastrically to rats to determine the drug concentration in plasma at different time points by HPLC-UV. The pharmacokinetic behavior of the compounds of the present disclosure was studied and evaluated in rats. […] 40 μL of the supernatant was analyzed by HPLC-UV. […]
parameter: CL/F (mL/min/kg)
Reply with just the number (in mL/min/kg).

Worked cases, answers included:
CC1=NN(c2ccc3c(c2)CCC3)C(=O)/C1=N\Nc1cccc(-c2ccc(C(=O)O)o2)c1O.CCNCC.CCNCC 6.33
CC1=NN(c2ccc3c(c2)CCCC3)C(=O)/C1=N\Nc1cccc(-c2ccc(C(=O)[O-])o2)c1[O-].[Na+].[Na+] 40
CC1=NN(c2ccc3c(c2)CCC3)C(=O)/C1=N\Nc1cccc(-c2cccc(C(=O)O)c2)c1O.CCNCC.CCNCC 1

Let us move to another entry and its CL/F.
Request the reported CL/F associated with CC1=NN(c2ccc3c(c2)CCC3)C(=O)/C1=N\Nc1cccc(-c2csc(C(=O)O)c2)c1O.CCNCC.CCNCC
3.5

---

experiment: Pharmacokinetics assay in Beagle dogs; type: in vivo; conditions: male, beagle, dog, plasma, po, 5 mg/kg, intragastric, 5 mg/kg (as free acid), read-out: Time to peak Tmax
The following compounds are shown together with reported Tmax values.
Reply with just the number (in min).

Request the reported Tmax associated with CC1=NN(c2ccc3c(c2)CCCC3)C(=O)/C1=N\Nc1cccc(-c2ccc(C(=O)O)o2)c1O [Example 12]
30

Request the reported Tmax associated with CC1=NN(c2ccc3c(c2)CCCC3)C(=O)/C1=N\Nc1cccc(-c2ccc(C(=O)O)o2)c1O.NCCO.NCCO [Example 7]
72

---

assay: Solubility assay in water, 0.1% hydrochloric acid and methanol; format: physicochemical; conditions: methanol, organic solvent or mixture, methanol; read-out: solubility
parameter: solubility (mg/mL)
Reply with just the number (in mg/mL).

CC1=NN(c2ccc3c(c2)C(C)(C)CC3)C(=O)/C1=N\Nc1cccc(-c2ccc(C(=O)O)o2)c1O.NCCO.NCCO 19
CC1=NN(c2ccc3c(c2)CCCC3)C(=O)/C1=N\Nc1cccc(-c2ccc(C(=O)O)o2)c1O.NCCO.NCCO 22.4
CC1=NN(c2ccc3c(c2)CCCC3)C(=O)/C1=N\Nc1cccc(-c2ccc(C(=O)[O-])o2)c1[O-].[Na+].[Na+] 3.72

Request the reported solubility associated with CC1=NN(c2ccc3c(c2)CCC3)C(=O)/C1=N\Nc1cccc(-c2cccc(C(=O)O)c2)c1O.NCCO.NCCO
1.47

---

assay: Pharmacokinetics assay in rats; format: in vivo, SD rats; conditions: SD rats, intragastric, 50 mg/Kg (as free acid); 50 mg/kg
Response field label takes 1 (yes) when Clearance CL/F is strictly below 0.5 L/h/kg and 0 (no) in all other cases.

compound	assigned-label
CC1=NN(c2ccc3c(c2)CCC3)C(=O)/C1=N\Nc1cccc(-c2cccc(C(=O)O)c2)c1O	1 (yes)
CC1=NN(c2ccc3c(c2)C(C)(C)CC3)C(=O)/C1=N\Nc1cccc(-c2ccc(C(=O)O)o2)c1O [Example 4h]	0 (no)
CC1=NN(c2ccc3c(c2)CCC3)C(=O)/C1=N\Nc1cccc(-c2csc(C(=O)O)c2)c1O [Example 21]	1 (yes)

Consider the compound CC1=NN(c2ccc3c(c2)CCCC3)C(=O)/C1=N\Nc1cccc(-c2ccc(C(=O)O)o2)c1O [Example 8] . Is its Clearance CL/F strictly less than 0.5 L/h/kg?
0 (no)

Consider the compound CC1=NN(c2ccc3c(c2)CCCC3)C(=O)/C1=N\Nc1cccc(-c2ccc(C(=O)O)o2)c1O [Example 13] . Is its Clearance CL/F strictly less than 0.5 L/h/kg?
0 (no)

Consider the compound CC1=NN(c2ccc3c(c2)C(C)(C)CC3)C(=O)/C1=N\Nc1cccc(-c2ccc(C(=O)O)o2)c1O [Example 6] . Is its Clearance CL/F strictly less than 0.5 L/h/kg?
1 (yes)

Consider the compound CC1=NN(c2ccc3c(c2)CCC3)C(=O)/C1=N\Nc1cccc(-c2ccc(C(=O)O)o2)c1O [Example 16a] . Is its Clearance CL/F strictly less than 0.5 L/h/kg?
0 (no)

Consider the compound CC1=NN(c2ccc3c(c2)CCCC3)C(=O)/C1=N\Nc1cccc(-c2ccc(C(=O)O)o2)c1O [Example 12] . Is its Clearance CL/F strictly less than 0.5 L/h/kg?
0 (no)

Consider the compound CC1=NN(c2ccc3c(c2)CCCC3)C(=O)/C1=N\Nc1cccc(-c2ccc(C(=O)O)o2)c1O [Example 23] . Is its Clearance CL/F strictly less than 0.5 L/h/kg?
0 (no)

Consider the compound CC1=NN(c2ccc3c(c2)CCCC3)C(=O)/C1=N\Nc1cccc(-c2ccc(C(=O)O)o2)c1O [Example 11] . Is its Clearance CL/F strictly less than 0.5 L/h/kg?
0 (no)

Consider the compound CC1=NN(c2ccc3c(c2)CCCC3)C(=O)/C1=N\Nc1cccc(-c2ccc(C(=O)O)o2)c1O [Example 15] . Is its Clearance CL/F strictly less than 0.5 L/h/kg?
0 (no)

Consider the compound CC1=NN(c2ccc3c(c2)C(C)(C)CC3)C(=O)/C1=N\Nc1cccc(-c2ccc(C(=O)O)o2)c1O [Example 5] . Is its Clearance CL/F strictly less than 0.5 L/h/kg?
1 (yes)

Consider the compound CC1=NN(c2ccc3c(c2)CCC3)C(=O)/C1=N\Nc1cccc(-c2csc(C(=O)O)c2)c1O [Example 19d] . Is its Clearance CL/F strictly less than 0.5 L/h/kg?
0 (no)

Consider the compound CC1=NN(c2ccc3c(c2)CCC3)C(=O)/C1=N\Nc1cccc(-c2ccc(C(=O)O)o2)c1O [Example 18] . Is its Clearance CL/F strictly less than 0.5 L/h/kg?
0 (no)

Consider the compound CC1=NN(c2ccc3c(c2)CCCC3)C(=O)/C1=N\Nc1cccc(-c2ccc(C(=O)O)o2)c1O [Example 9] . Is its Clearance CL/F strictly less than 0.5 L/h/kg?
1 (yes)

---

assay: Pharmacokinetics assay in rats; assay type: in vivo, SD rats; conditions: both sexes, rat, in vivo, po; SD rats, intragastric, 50 mg/Kg (as free acid); read-out: Apparent Distribution Volume Vz/F
The following molecules are shown together with reported Vd/F values.

CC1=NN(c2ccc3c(c2)CCC3)C(=O)/C1=N\Nc1cccc(-c2cccc(C(=O)O)c2)c1O.CCNCC.CCNCC 0.83 L/kg
CC1=NN(c2ccc3c(c2)CCC3)C(=O)/C1=N\Nc1cccc(-c2csc(C(=O)O)c2)c1O.CCNCC.CCNCC 2.05 L/kg

Let us move to another entry and its Vd/F.
Request the reported Vd/F associated with CC1=NN(c2ccc3c(c2)CCC3)C(=O)/C1=N\Nc1cccc(-c2ccc(C(=O)O)o2)c1O.CCNCC.CCNCC
8.16 L/kg

---

The following compounds are shown together with reported solubility values.
Assay: Solubility assay in water, 0.1% hydrochloric acid and methanol
Assay type: physicochemical
Settings: water
Method: The solubility was characterized by: The term “very soluble” refers to that 1 g (mL) of solute can be dissolved in less than 1 mL of solvent; The term “freely soluble” refers to that 1 g (mL) of solute can be dissolved in from 1 mL to 10 mL, not including 10 mL of solvent; The term “soluble” refers to that 1 g (mL) of solute can be dissolved in from 10 mL to 30 mL, not including 30 mL of solvent; […]
Reply with just the number (in µg/mL).

compound	observed-value
CC1=NN(c2ccc3c(c2)CCC3)C(=O)/C1=N\Nc1cccc(-c2ccc(C(=O)O)o2)c1O [Example 18]	2741

Let us move to another entry and its solubility.
Request the reported solubility associated with CC1=NN(c2ccc3c(c2)C(C)(C)CC3)C(=O)/C1=N\Nc1cccc(-c2ccc(C(=O)O)o2)c1O
1
